Value source: patent US20230159583A1

System: ICR mice
Assay type: in vivo
measurement_parameters: p.o., 15 g/kg
experimental_endpoint: Mortality

CCCCC(=O)O[C@]1(/C(CO)=N/O)CC[C@H]2[C@@H]3C[C@H](C)C4=CC(=NO)C=C[C@]4(C)[C@H]3[C@@H](O)C[C@@]21C 0/12
CC(=O)OC/C(=N\O)[C@@]1(O)CC[C@H]2[C@@H]3CCC4=CC(=NO)CC[C@]4(C)[C@H]3[C@@H](O)C[C@@]21C 4/12
CCON=C1C=C[C@@]2(C)C(=C1)CC[C@@H]1[C@@H]2[C@@H](O)C[C@@]2(C)[C@H]1C[C@@H](C)[C@]2(O)/C(COC(C)=O)=N/OCC 0/12
C[C@H]1C[C@@H]2[C@H]([C@@H](O)C[C@@]3(C)[C@H]2CC[C@]3(O)/C(CO)=N/O)[C@@]2(C)C=CC(=NO)C=C12 0/12

====

System: ICR mice
Format: in vivo
measurement_parameters: p.o., 7.68 g/kg
Text: The experiment was designed according to the “Technical Guideline for Acute Toxicity Test of Chemical Drugs” issued by the State Food and Drug Administration in March 2005. The doses administered were 4 g/kg, 4.91 g/kg, 6.14 g/kg, 7.68 g/kg, 9.6 g/kg, 12 g/kg, and 15 g/kg (the dose could be adjusted according to the actual test results), 12 ICR mice per dose group. […]
# Mortality values compiled below
experimental_endpoint: Mortality

C[C@H]1C[C@@H]2[C@H]([C@@H](O)C[C@@]3(C)[C@H]2CC[C@]3(O)/C(CO)=N/O)[C@@]2(C)C=CC(=NO)C=C12 0/12
CC(=O)OC/C(=N\O)[C@@]1(O)CC[C@H]2[C@@H]3C[C@H](C)C4=CC(=NO)C=C[C@]4(C)[C@H]3[C@@H](O)C[C@@]21C 0/12
C[C@@H]1C[C@H]2[C@@H]3CCC4=CC(=NO)C=C[C@]4(C)[C@H]3[C@@H](O)C[C@]2(C)[C@H]1/C(CO)=N/O 1/12
CCCCC(=O)O[C@]1(/C(CO)=N/O)CC[C@H]2[C@@H]3C[C@H](C)C4=CC(=NO)C=C[C@]4(C)[C@H]3[C@@H](O)C[C@@]21C 0/12
C[C@]12C=CC(=NO)C=C1CC[C@@H]1[C@@H]2[C@@H](O)C[C@@]2(C)[C@H]1CC[C@]2(O)/C(CO)=N/O 0/12
CCON=C1C=C[C@@]2(C)C(=C1)[C@@H](C)C[C@@H]1[C@@H]2[C@@H](O)C[C@@]2(C)[C@H]1CC[C@]2(O)/C(CO)=N/OCC 0/12

====

Reported Mortality values follow for various compounds
System: ICR mice
Format: in vivo
measurement_parameters: p.o., 9.6 g/kg
experimental_endpoint: Mortality

CC(=O)OC/C(=N\O)[C@@]1(O)CC[C@H]2[C@@H]3CCC4=CC(=NO)CC[C@]4(C)[C@H]3[C@@H](O)C[C@@]21C 1/12
C[C@]12C=CC(=NO)C=C1CC[C@@H]1[C@@H]2[C@@H](O)C[C@@]2(C)[C@H]1CC[C@]2(O)/C(CO)=N/O 0/12
CCCCC(=O)O[C@]1(/C(CO)=N/O)CC[C@H]2[C@@H]3C[C@H](C)C4=CC(=NO)C=C[C@]4(C)[C@H]3[C@@H](O)C[C@@]21C 0/12
CCON=C1C=C[C@@]2(C)C(=C1)CC[C@@H]1[C@@H]2[C@@H](O)C[C@@]2(C)[C@H]1C[C@@H](C)[C@]2(O)/C(COC(C)=O)=N/OCC 0/12
CCC(=O)OC/C(=N\O)[C@@]1(O)[C@H](O)C[C@H]2[C@@H]3CCC4=CC(=NO)C=C[C@]4(C)[C@@]3(F)[C@@H](O)C[C@@]21C 1/12
CC(=O)OC/C(=N\O)[C@@]1(O)CC[C@H]2[C@@H]3C[C@H](C)C4=CC(=NO)C=C[C@]4(C)[C@H]3[C@@H](O)C[C@@]21C 1/12
CC1(C)O[C@@H]2C[C@H]3[C@@H]4C[C@H](F)C5=CC(=NO)C=C[C@]5(C)[C@@]4(F)[C@@H](O)C[C@]3(C)[C@]2(/C(CO)=N/O)O1 0/12
C[C@H]1C[C@@H]2[C@H]([C@@H](O)C[C@@]3(C)[C@H]2CC[C@]3(O)/C(CO)=N/O)[C@@]2(C)C=CC(=NO)C=C12 0/12
CCON=C1C=C[C@@]2(C)C(=C1)[C@@H](C)C[C@@H]1[C@@H]2[C@@H](O)C[C@@]2(C)[C@H]1CC[C@]2(O)/C(CO)=N/OCC 0/12
C[C@@H]1C[C@H]2[C@@H]3CCC4=CC(=NO)C=C[C@]4(C)[C@H]3[C@@H](O)C[C@]2(C)[C@H]1/C(CO)=N/O 3/12

====

System: carrageenan-induced mouse paw swelling
experiment: carrageenan-induced mouse paw swelling model
Format: in vivo
measurement_parameters: ICR mice, 130 mg/kg by gavage once a day for seven days, 180 min after onset of inflammation

compound	Swelling value (cm)
CCON=C1C=C[C@@]2(C)C(=C1)CC[C@@H]1[C@@H]2[C@@H](O)C[C@@]2(C)[C@H]1C[C@@H](C)[C@]2(O)/C(COC(C)=O)=N/OCC	0.1
CCCCC(=O)O[C@]1(/C(CO)=N/O)CC[C@H]2[C@@H]3C[C@H](C)C4=CC(=NO)C=C[C@]4(C)[C@H]3[C@@H](O)C[C@@]21C	0.01
CC(=O)OC/C(=N\O)[C@@]1(O)CC[C@H]2[C@@H]3C[C@H](C)C4=CC(=NO)C=C[C@]4(C)[C@H]3[C@@H](O)C[C@@]21C	0.01
C[C@H]1C[C@@H]2[C@H]([C@@H](O)C[C@@]3(C)[C@H]2CC[C@]3(O)/C(CO)=N/O)[C@@]2(C)C=CC(=NO)C=C12	0.01
C[C@H]1C[C@@H]2[C@H]([C@@H](O)C[C@@]3(C)[C@H]2CC[C@]3(O)C(=O)CO)[C@@]2(C)C=CC(=O)C=C12 [Methylprednisolone, methylprednisolone, reference compound]	0.15
